These measurements were taken from patent US20230382928A1.

TEST: Absorption spectra / molar extinction coefficient (Beer-Lambert)
Assay type: physicochemical
MEASUREMENT_PARAMETERS: molar extinction coefficient at λexc
Description: The properties of representative complexes of the invention (complexes 14, 18, 21, 78a, 78b, 88a, 88b, 93, 104) were investigated. The presence of the Boc-group was not predicted to alter these properties. […] The absorption and emission spectra were recorded in a pH gradient (pH 4 to pH 10). Traditionally, molar extinction coefficients, ε, are calculated using the Beer-Lambert equation and involve measuring the absorbance of a series of solutions of a complex at different known concentrations. […]
OBSERVED_PROPERTY: ε

[
  {
    "COMPOUND": "CCN(CC)c1cc(C#Cc2cc(CN3CCN(Cc4cccc(P(C)(=O)[O-])n4)CCN(Cc4cc(C#Cc5ccc(OC)c(N(CC)CC)c5)cc(P(C)(=O)[O-])n4)CC3)nc(P(C)(=O)[O-])c2)ccc1OC.[Eu+3]",
    "VALUE": "35000 M⁻¹ cm⁻¹"
  },
  {
    "COMPOUND": "CCN(CC)c1cc(C#Cc2cc(CN3CCN(Cc4cccc(P(C)(=O)[O-])n4)CCN(Cc4cccc(P(C)(=O)[O-])n4)CC3)nc(P(C)(=O)[O-])c2)ccc1OC.[Eu+3]",
    "VALUE": "11450 M⁻¹ cm⁻¹"
  },
  {
    "COMPOUND": "CCN(C)c1cc(C#Cc2cc(CN3CCN(Cc4cc(C#Cc5ccc(OCCCC(=O)NCCCS(=O)(=O)[O-])c(N(C)CC)c5)cc(P(C)(=O)[O-])n4)CCN(Cc4cc(CCCNC(=O)OC(C)(C)C)cc(P(C)(=O)[O-])n4)CC3)nc(P(C)(=O)[O-])c2)ccc1OCCCC(=O)NCCCS(=O)(=O)[O-].[Eu+3] [Complex 78b]",
    "VALUE": "39000 M⁻¹ cm⁻¹"
  }
]

Continue with the next compound.
Query: Looking for the measured ε of CCN(CC)c1cc(C#Cc2cc(CN3CCN(Cc4cc(C#Cc5ccc(OCCCC(=O)NCCCS(=O)(=O)[O-])c(N(CC)CC)c5)cc(P(C)(=O)[O-])n4)CCN(Cc4cc(CCCNC(=O)OC(C)(C)C)cc(P(C)(=O)[O-])n4)CC3)nc(P(C)(=O)[O-])c2)ccc1OCCCC(=O)NCCCS(=O)(=O)[O-].[Eu+3] [Complex 78a] , can you help?
Reply: 39000 M⁻¹ cm⁻¹

###

TEST: pKa determination from emission lifetime variation versus pH
MEASUREMENT_PARAMETERS: 295 K, I = 0.1M NaCl
Label Criterion met when pKa is at or above 6; otherwise label Criterion not met.

See these solved cases before continuing.
[
  {
    "COMPOUND": "CCN(CC)c1cc(C#Cc2cc(CN3CCN(Cc4cccc(P(C)(=O)[O-])n4)CCN(Cc4cc(C#Cc5ccc(OC)c(N(CC)CC)c5)cc(P(C)(=O)[O-])n4)CC3)nc(P(C)(=O)[O-])c2)ccc1OC.[Eu+3] [Complex 18]",
    "CATEGORY": "Criterion met"
  },
  {
    "COMPOUND": "CCN(CC)c1cc(C#Cc2cc(CN3CCN(Cc4cc(C#Cc5ccc(OCCCC(=O)NCCCS(=O)(=O)[O-])c(N(CC)CC)c5)cc(P(C)(=O)[O-])n4)CCN(Cc4cc(CCCNC(=O)OC(C)(C)C)cc(P(C)(=O)[O-])n4)CC3)nc(P(C)(=O)[O-])c2)ccc1OCCCC(=O)NCCCS(=O)(=O)[O-].[Eu+3] [Complex 78a]",
    "CATEGORY": "Criterion met"
  },
  {
    "COMPOUND": "CCN(CC)c1cc(C#Cc2cc(CN3CCN(Cc4cc(C#Cc5ccc(OC)c(N(CC)CC)c5)cc(P(C)(=O)[O-])n4)CCN(Cc4cc(C#Cc5ccc(OC)c(N(CC)CC)c5)cc(P(C)(=O)[O-])n4)CC3)nc(P(C)(=O)[O-])c2)ccc1OC.[Eu+3] [Complex 21]",
    "CATEGORY": "Criterion met"
  },
  {
    "COMPOUND": "CCN(C)c1cc(C#Cc2cc(CN3CCN(Cc4cc(C#Cc5ccc(OCCCC(=O)NCCCS(=O)(=O)[O-])c(N(C)CC)c5)cc(P(C)(=O)[O-])n4)CCN(Cc4cc(CCCNC(=O)OC(C)(C)C)cc(P(C)(=O)[O-])n4)CC3)nc(P(C)(=O)[O-])c2)ccc1OCCCC(=O)NCCCS(=O)(=O)[O-].[Eu+3] [Complex 78b]",
    "CATEGORY": "Criterion not met"
  }
]

Query: Is it the case that CCN(CC)c1cc(C#Cc2cc(CN3CCN(Cc4cccc(P(C)(=O)[O-])n4)CCN(Cc4cccc(P(C)(=O)[O-])n4)CC3)nc(P(C)(=O)[O-])c2)ccc1OC.[Eu+3] [Complex 14] has pKa reaching or exceeding 6?
Reply: Criterion met

###

# maps each entry to its ΦpH 8 (quantum yield)
TEST: Quantum yield of europium complexes at different pH
Type: physicochemical
MEASUREMENT_PARAMETERS: pH 8; λexc 330-332 nm
Expressed in %, but write only the number.

[
  {
    "COMPOUND": "CCN(CC)c1cc(C#Cc2cc(CN(CC(=O)O)CC(=O)O)nc(CN(CC(=O)O)CC(=O)O)c2)ccc1OCCCN",
    "VALUE": 0.17
  },
  {
    "COMPOUND": "CCN(CC)c1cc(C#Cc2cc(CN3CCN(Cc4cccc(P(C)(=O)[O-])n4)CCN(Cc4cccc(P(C)(=O)[O-])n4)CC3)nc(P(C)(=O)[O-])c2)ccc1OC.[Eu+3]",
    "VALUE": 0.5
  },
  {
    "COMPOUND": "CCN(CCCS(=O)(=O)O)c1cc(C#Cc2cc(CN3CCN(Cc4cc(C#Cc5ccc(OC)c(N(CC)CCCS(=O)(=O)O)c5)cc(P(C)(=O)O)n4)CCN(Cc4cc(CCCNC(=O)OC(C)(C)C)cc(P(C)(=O)O)n4)CC3)nc(P(C)(=O)O)c2)ccc1OC [Complex 88a]",
    "VALUE": 0.06
  },
  {
    "COMPOUND": "CCN(C)c1cc(C#Cc2cc(CN3CCN(Cc4cc(C#Cc5ccc(OCCCC(=O)NCCCS(=O)(=O)[O-])c(N(C)CC)c5)cc(P(C)(=O)[O-])n4)CCN(Cc4cc(CCCNC(=O)OC(C)(C)C)cc(P(C)(=O)[O-])n4)CC3)nc(P(C)(=O)[O-])c2)ccc1OCCCC(=O)NCCCS(=O)(=O)[O-].[Eu+3] [Complex 78b]",
    "VALUE": 0.01
  }
]

Continue with the next compound.
Query: Looking for the measured ΦpH 8 (quantum yield) of CCN(CC)c1cc(C#Cc2cc(CN3CCN(Cc4cc(C#Cc5ccc(OCCCC(=O)NCCCS(=O)(=O)[O-])c(N(CC)CC)c5)cc(P(C)(=O)[O-])n4)CCN(Cc4cc(CCCNC(=O)OC(C)(C)C)cc(P(C)(=O)[O-])n4)CC3)nc(P(C)(=O)[O-])c2)ccc1OCCCC(=O)NCCCS(=O)(=O)[O-].[Eu+3] [Complex 78a] , can you help?
Reply: 0.3

###

TEST: Absorption spectra / molar extinction coefficient (Beer-Lambert)
Type: physicochemical
MEASUREMENT_PARAMETERS: excitation wavelength
# maps each entry to its λexc (nm)
Expressed in nm, but write only the number.

Worked cases, answers included:
[
  {
    "COMPOUND": "CCN(CCCS(=O)(=O)O)c1cc(C#Cc2cc(CN3CCN(Cc4cc(C#Cc5ccc(OC)c(N(CC)CCCS(=O)(=O)O)c5)cc(P(C)(=O)O)n4)CCN(Cc4cc(CCCNC(=O)OC(C)(C)C)cc(P(C)(=O)O)n4)CC3)nc(P(C)(=O)O)c2)ccc1OC [Complex 88a]",
    "λexc (nm)": 332
  },
  {
    "COMPOUND": "CCN(CC)c1cc(C#Cc2cc(CN(CC(=O)O)CC(=O)O)nc(CN(CC(=O)O)CC(=O)O)c2)ccc1OCCCN",
    "λexc (nm)": 330
  },
  {
    "COMPOUND": "CCN(C)c1cc(C#Cc2cc(CN3CCN(Cc4cc(C#Cc5ccc(OCCCC(=O)NCCCS(=O)(=O)[O-])c(N(C)CC)c5)cc(P(C)(=O)[O-])n4)CCN(Cc4cc(CCCNC(=O)OC(C)(C)C)cc(P(C)(=O)[O-])n4)CC3)nc(P(C)(=O)[O-])c2)ccc1OCCCC(=O)NCCCS(=O)(=O)[O-].[Eu+3] [Complex 78b]",
    "λexc (nm)": 330
  },
  {
    "COMPOUND": "CCN(CC)c1cc(C#Cc2cc(CN3CCN(Cc4cc(C#Cc5ccc(OC)c(N(CC)CC)c5)cc(P(C)(=O)[O-])n4)CCN(Cc4cc(C#Cc5ccc(OC)c(N(CC)CC)c5)cc(P(C)(=O)[O-])n4)CC3)nc(P(C)(=O)[O-])c2)ccc1OC.[Eu+3]",
    "λexc (nm)": 331
  },
  {
    "COMPOUND": "CCN(CC)c1cc(C#Cc2cc(CN3CCN(Cc4cc(C#Cc5ccc(OCCCC(=O)NCCCS(=O)(=O)[O-])c(N(CC)CC)c5)cc(P(C)(=O)[O-])n4)CCN(Cc4cc(CCCNC(=O)OC(C)(C)C)cc(P(C)(=O)[O-])n4)CC3)nc(P(C)(=O)[O-])c2)ccc1OCCCC(=O)NCCCS(=O)(=O)[O-].[Eu+3] [Complex 78a]",
    "λexc (nm)": 330
  }
]

Query: Looking for the measured λexc (nm) of CCN(CC)c1cc(C#Cc2cc(CN3CCN(Cc4cccc(P(C)(=O)[O-])n4)CCN(Cc4cc(C#Cc5ccc(OC)c(N(CC)CC)c5)cc(P(C)(=O)[O-])n4)CC3)nc(P(C)(=O)[O-])c2)ccc1OC.[Eu+3] , can you help?
Reply: 328

Query: For CCN(CC)c1cc(C#Cc2cc(CN3CCN(Cc4cccc(P(C)(=O)[O-])n4)CCN(Cc4cccc(P(C)(=O)[O-])n4)CC3)nc(P(C)(=O)[O-])c2)ccc1OC.[Eu+3] then?
Reply: 331
